Assay Comment: recombinant UMI read abundance after kanamycin selection (control-corrected) (log10(CPM+1)); higher = more efficient recombination; extreme values may be limits of the assay; sequences stand for … in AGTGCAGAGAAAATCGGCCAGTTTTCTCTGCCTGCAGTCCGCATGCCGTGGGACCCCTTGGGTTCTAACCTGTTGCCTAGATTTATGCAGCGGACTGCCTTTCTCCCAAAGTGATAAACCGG…AGGTTGGTTTCACT; site = the 11-nt donor;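 note: IS621 bridge recombinase in Escherichia coli cells against a fixed T5 target plasmid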
Reported Property: recombinant UMI read abundance (log10)
Form: value (number only, do not type unit).

Problem: Entry AGCTAACCATGGACCGGTTTTCCCGGTAATCCGTATTTGTG (site AGCTAACCTCA) : reported recombinant UMI read abundance (log10) = ?
Result: 0.00444

Problem: recombinant UMI read abundance (log10) lookup needed for CATGTCACATGGACCGGTTTTCCCGGTAATCCGTATTTGGG (site CAGGTCACTCC) , thanks.
Result: 0.0142

Problem: Fill in: recombinant UMI read abundance (log10) of CGTGAACCATGGACCGGTTTTCCCGGTAATCCGTATTTGAT (site CGTGAACCTAT) is ___
Result: 0.0133

Problem: // recombinant UMI read abundance (log10) lookup, key: GTGCAAGCATGGACCGGTTTTCCCGGTAATCCGTATTTGGT (site GTGCACGCTAC)
Result: 0.00225

Problem: Recorded recombinant UMI read abundance (log10) of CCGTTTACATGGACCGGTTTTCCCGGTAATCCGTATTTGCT (site CCGTATACTAG) , please.
Result: 0

Problem: Give the measured recombinant UMI read abundance (log10) of ATATCGCCATGGACCGGTTTTCCCGGTAATCCGTATTTGAT (site ATATCGCCTAT) .
Result: 0.284

Problem: What does the data say about its recombinant UMI read abundance (log10)? Entry: GGTAAGTCATGGACCGGTTTTCCCGGTAATCCGTATTTGTT (site GGTAGGTCTAA)
Result: 0.00944

Problem: Reported recombinant UMI read abundance (log10) for GCGCTCACATGGACCGGTTTTCCCGGTAATCCGTATTTGAT (site GGGCTCACTAT) : what is it?
Result: 0.00525

Problem: Requested read-out: recombinant UMI read abundance (log10). Entry: ACCTCTACATGGACCGGTTTTCCCGGTAATCCGTATTTGTG (site ACATCTACTCA)
Result: 0.014

###

Assay Comment: recombinant UMI read abundance after kanamycin selection (control-corrected) (log10(CPM+1)); higher = more efficient recombination; extreme values may be limits of the assay; sequences stand for … in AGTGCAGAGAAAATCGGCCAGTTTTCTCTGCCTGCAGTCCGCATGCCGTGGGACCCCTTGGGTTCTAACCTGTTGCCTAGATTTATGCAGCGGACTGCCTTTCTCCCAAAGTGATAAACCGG…AGGTTGGTTTCACT; site = the 11-nt donor
Hi, to clarify the labels: T covers recombinant UMI read abundance (log10) from 0.03 upward, F covers anything below 0.03.

Problem: Dear colleague, could you confirm whether TTACGAACATGGACCGGTTTTCCCGGTAATCCGTATTTGAC (site TTACGAACTGT) has recombinant UMI read abundance (log10) at or above 0.03?
Result: T

Problem: Is recombinant UMI read abundance (log10) at least 0.03? Consider CAGTTGACATGGACCGGTTTTCCCGGTAATCCGTATTTGGG (site CAGTGGACTCC)
Result: F

Problem: Is recombinant UMI read abundance (log10) for CTCTCCACATGGACCGGTTTTCCCGGTAATCCGTATTTGCT (site CTCTTCACTAG) at or above 0.03?
Result: T

Problem: Is recombinant UMI read abundance (log10) at least 0.03? Consider TAGACAACATGGACCGGTTTTCCCGGTAATCCGTATTTGAG (site TAGACAACTCT)
Result: T

Problem: Reported recombinant UMI read abundance (log10) at or above 0.03? CAAGTAACATGGACCGGTTTTCCCGGTAATCCGTATTTGGG (site CAAGTCACTCC)
Result: F

Problem: Assess whether reported recombinant UMI read abundance (log10) for GGAGTGGCATGGACCGGTTTTCCCGGTAATCCGTATTTGGA (site GGAGTGGCTCC) sits at 0.03 or higher.
Result: F

Problem: Could you tell me if the measured recombinant UMI read abundance (log10) of AATGTGACATGGACCGGTTTTCCCGGTAATCCGTATTTGCT (site AATGTTACTAG) reaches 0.03 or more?
Result: T

Problem: Answer whether recombinant UMI read abundance (log10) of TCCACCGCATGGACCGGTTTTCCCGGTAATCCGTATTTGAG (site TCCACCGCTCG) is greater than or equal to 0.03.
Result: F

Problem: In plain terms: is recorded recombinant UMI read abundance (log10) at least 0.03 for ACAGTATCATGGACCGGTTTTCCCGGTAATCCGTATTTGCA (site TCAGTAGCTTG) ?
Result: T

Problem: Has TTACAACCATGGACCGGTTTTCCCGGTAATCCGTATTTGCA (site TTACAACCTTG) a recorded recombinant UMI read abundance (log10) greater than or equal to 0.03?
Result: F

Problem: # bool: recombinant UMI read abundance (log10) of CGCAATCCATGGACCGGTTTTCCCGGTAATCCGTATTTGTT (site CGAAATCCTAA) >= 0.03
Result: F

Problem: Has AGCCACCCATGGACCGGTTTTCCCGGTAATCCGTATTTGTT (site AGCCACCCTAA) a recorded recombinant UMI read abundance (log10) greater than or equal to 0.03?
Result: F

Problem: Does the sequence GGATATACATGGACCGGTTTTCCCGGTAATCCGTATTTGCC (site GGATAGACTGG) have recorded recombinant UMI read abundance (log10) that is 0.03 or more?
Result: T

Problem: Hello, I need to know if GCAGCGGCATGGACCGGTTTTCCCGGTAATCCGTATTTGCC (site GCAGCGGCTGG) has measured recombinant UMI read abundance (log10) not below 0.03. Thanks!
Result: T

Problem: Could you tell me if the measured recombinant UMI read abundance (log10) of GTTACTGCATGGACCGGTTTTCCCGGTAATCCGTATTTGCC (site GCTACTGCTGG) reaches 0.03 or more?
Result: F

Problem: Decide: is the reported value of recombinant UMI read abundance (log10) for GGTCTAACATGGACCGGTTTTCCCGGTAATCCGTATTTGTA (site GGTCCAACTTA) equal to or greater than 0.03?
Result: F

Problem: Hello, I need to know if TGTTCCCCATGGACCGGTTTTCCCGGTAATCCGTATTTGTG (site TGTTCCCCTCA) has measured recombinant UMI read abundance (log10) not below 0.03. Thanks!
Result: T

Problem: Given the entry CTGCATGCATGGACCGGTTTTCCCGGTAATCCGTATTTGGT (site GTGCATGCTAC) , answer whether its recombinant UMI read abundance (log10) meets or surpasses 0.03.
Result: T

Problem: Could you please find out whether CCCGTATCATGGACCGGTTTTCCCGGTAATCCGTATTTGTC (site CCCGTATCTGA) has recombinant UMI read abundance (log10) that meets 0.03 or exceeds it?
Result: T

Problem: Decide: recombinant UMI read abundance (log10) of CGTACAACATGGACCGGTTTTCCCGGTAATCCGTATTTGGT (site CGTACAACTAC) >= 0.03?
Result: T

Problem: Does the sequence CCTGGTGCATGGACCGGTTTTCCCGGTAATCCGTATTTGTA (site CCTGGTGCTTA) have recorded recombinant UMI read abundance (log10) that is 0.03 or more?
Result: T

Problem: Hello, I need to know if GACAGACCATGGACCGGTTTTCCCGGTAATCCGTATTTGGT (site GACAAACCTAC) has measured recombinant UMI read abundance (log10) not below 0.03. Thanks!
Result: F

Problem: Evaluate AAGAATACATGGACCGGTTTTCCCGGTAATCCGTATTTGCA (site CAGAATACTTG) : recombinant UMI read abundance (log10) at minimum 0.03?
Result: T

Problem: recombinant UMI read abundance (log10) >= 0.03 for ATCTAAACATGGACCGGTTTTCCCGGTAATCCGTATTTGAC (site ATCTATACTGT) ?
Result: F

Problem: Hi team, for CGTGCGTCATGGACCGGTTTTCCCGGTAATCCGTATTTGTA (site CGTGCGTCTTA) , is the recorded recombinant UMI read abundance (log10) at or above 0.03?
Result: T

Problem: Is the recorded value of recombinant UMI read abundance (log10) equal to or greater than 0.03 for this sequence? AGTCTAGCATGGACCGGTTTTCCCGGTAATCCGTATTTGTT (site AGGCTAGCTAA)
Result: F

Problem: Textbook exercise: given the entry TCCTGCCCATGGACCGGTTTTCCCGGTAATCCGTATTTGCT (site TCCTGCCCTAG) , state whether its recombinant UMI read abundance (log10) is greater than or equal to 0.03.
Result: F

Problem: State whether the measured recombinant UMI read abundance (log10) reaches 0.03, counting equality as reaching it, for GAATGTCCATGGACCGGTTTTCCCGGTAATCCGTATTTGCA (site GAATGACCTTG)
Result: F

Problem: Textbook exercise: given the entry AGAGGATCATGGACCGGTTTTCCCGGTAATCCGTATTTGCA (site AGAGGATCTTG) , state whether its recombinant UMI read abundance (log10) is greater than or equal to 0.03.
Result: T

Problem: Is recombinant UMI read abundance (log10) at least 0.03? Consider GTAGTCGCATGGACCGGTTTTCCCGGTAATCCGTATTTGCG (site GTAGTCGCTCC)
Result: F

Problem: Threshold query (recombinant UMI read abundance (log10) >= 0.03) on AGTCTGACATGGACCGGTTTTCCCGGTAATCCGTATTTGGA (site AGTCTGACTTC)
Result: T

Problem: Item GCGAAAACATGGACCGGTTTTCCCGGTAATCCGTATTTGTT (site GCGAAAACTAC) with recombinant UMI read abundance (log10) of 0.03 or above?
Result: F

Problem: Please indicate if the recorded recombinant UMI read abundance (log10) for AAGGTGTCATGGACCGGTTTTCCCGGTAATCCGTATTTGAC (site AAGGTGTCTGT) meets or exceeds 0.03.
Result: T

Problem: Determine whether this sequence has recombinant UMI read abundance (log10) no lower than 0.03: AGGACTACATGGACCGGTTTTCCCGGTAATCCGTATTTGAC (site AGGACTACTCT)
Result: F

Problem: Textbook exercise: given the entry CCCCAAACATGGACCGGTTTTCCCGGTAATCCGTATTTGTA (site CCCCACACTTA) , state whether its recombinant UMI read abundance (log10) is greater than or equal to 0.03.
Result: F

Problem: recombinant UMI read abundance (log10) >= 0.03 for ACCTAGACATGGACCGGTTTTCCCGGTAATCCGTATTTGGG (site ACATAGACTCC) ?
Result: F
